# credit: paper PMC10535256

Biological target: PehR (Ralstonia pseudosolanacearum, UniProt Q8XVM3)
Sequence (Q8XVM3 1-570): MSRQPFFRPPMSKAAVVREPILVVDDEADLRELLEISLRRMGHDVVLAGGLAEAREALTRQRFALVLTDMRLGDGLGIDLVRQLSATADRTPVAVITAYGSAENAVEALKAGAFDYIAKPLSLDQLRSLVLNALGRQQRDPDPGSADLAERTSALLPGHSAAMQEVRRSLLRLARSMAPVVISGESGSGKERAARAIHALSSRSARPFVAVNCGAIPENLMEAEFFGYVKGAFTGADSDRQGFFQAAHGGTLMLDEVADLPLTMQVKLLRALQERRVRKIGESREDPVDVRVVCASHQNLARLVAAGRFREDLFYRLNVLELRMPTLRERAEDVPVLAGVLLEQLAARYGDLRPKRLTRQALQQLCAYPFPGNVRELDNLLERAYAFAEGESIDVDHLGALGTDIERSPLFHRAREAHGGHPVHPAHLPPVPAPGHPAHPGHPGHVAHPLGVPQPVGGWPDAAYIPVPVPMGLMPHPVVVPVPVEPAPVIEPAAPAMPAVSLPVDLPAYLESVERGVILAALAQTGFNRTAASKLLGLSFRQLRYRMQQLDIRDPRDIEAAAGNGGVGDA
Assay: biochemical
readout kind: pKd
Formally, pKd is defined as -log10 of the concentration c, with c in mol/L.

Record for Nc1ncnc2c1ncn2[C@@H]1O[C@H](COP(=O)(O)OP(=O)(O)OP(=O)(O)O)[C@H]2OC3(O[C@H]21)C([N+](=O)[O-])=CC(=[N+]([O-])O)C=C3[N+](=O)[O-] (stereo partly shown) under target or system PehR (Ralstonia pseudosolanacearum, UniProt Q8XVM3): pKd reported as 3.97
